# System: Human immunodeficiency virus 1
# experiment.description: Antiviral activity against HIV1 SF33 infected in human MT4 cells assessed as inhibition of viral p24 antigen production after 7 days by ELISA
# Format: functional, organism-based
# study.conditions: Human immunodeficiency virus 1, SF33, MT4, 168 h
Quick reference for pEC50 among some compounds
Scale: pEC50 equals -log10([C]), with [C] in mol/L.

The examples below pair each entry with its known result.
{"smiles.string": "CCOCn1c(Cc2ccccc2)c(Br)c(=O)[nH]c1=O", "number": 5.68}
{"smiles.string": "CC(C)c1c(Cc2ccccc2)n(COCc2ccccc2)c(=O)[nH]c1=O", "number": 7.66}
{"smiles.string": "Cc1cc(C)cc(Cc2c(Br)c(=O)[nH]c(=O)n2COCc2ccccc2)c1", "number": 8.05}
{"smiles.string": "O=c1[nH]c(=O)n(COCc2ccccc2)c(Cc2ccccc2)c1Br", "number": 5.76}
{"smiles.string": "Cc1cc(C)cc(Cc2c(N(C)C)c(=O)[nH]c(=O)n2COCc2ccccc2)c1", "number": 7.85}

Prompt: Reported pEC50 for Cc1ccnc2c1NC(=O)c1cccnc1N2C1CC1 : what is it?
Completion: 7.17

Prompt: May I ask what pEC50 has been recorded for CN(C)c1c(Cc2ccccc2)n(COCc2ccccc2)c(=O)[nH]c1=O ?
Completion: 6.46

Prompt: Please give the measured pEC50 for this compound: O=c1[nH]c(=O)n(COCc2ccccc2)c(Cc2ccccc2)c1I
Completion: 7.35

Prompt: Name the reported pEC50 value associated with the compound Cc1cc(C)cc(Cc2c(I)c(=O)[nH]c(=O)n2COCc2ccccc2)c1
Completion: 8.70

Prompt: I would be grateful if you could share the reported pEC50 for O=c1[nH]c(=O)n(COCc2ccccc2)c(Cc2cc(F)cc(F)c2)c1I .
Completion: 8.22

Prompt: Please look up its pEC50: CCOCn1c(Cc2cc(F)cc(F)c2)c(I)c(=O)[nH]c1=O
Completion: 6.27

Prompt: // lookup pEC50 for CCOCn1c(Cc2cc(C)cc(C)c2)c(I)c(=O)[nH]c1=O
Completion: 8.22

Prompt: Which pEC50 is reported for this compound? CCOCn1c(Cc2ccccc2)c(N(C)C)c(=O)[nH]c1=O
Completion: 6.21

* * *

Quick record: IC50, Human immunodeficiency virus type 1 reverse transcriptase (Human immunodeficiency virus 1).
Express the result in nM but write the number alone.

{"smiles.string": "CCOCn1c(Cc2cc(C)cc(C)c2)c(I)c(=O)[nH]c1=O", "IC50 [nM]": 110}
{"smiles.string": "CCOCn1c(Cc2ccccc2)c(I)c(=O)[nH]c1=O", "IC50 [nM]": 114}
{"smiles.string": "CCOCn1c(Cc2ccccc2)c(N(C)C)c(=O)[nH]c1=O", "IC50 [nM]": 162}
{"smiles.string": "O=c1[nH]c(=O)n(COCc2ccccc2)c(Cc2ccccc2)c1I", "IC50 [nM]": 10}
{"smiles.string": "CCOCn1c(Cc2ccccc2)c(Br)c(=O)[nH]c1=O", "IC50 [nM]": 1820}

Could you now look at the following compound, please?
Prompt: Query: IC50; subject: Cc1cc(C)cc(Cc2c(Br)c(N)nc(=O)n2COCc2ccccc2)c1
Completion: 16300

* * *

# experiment.description: Selectivity index, ratio of CC50 for human MT4 cells to EC50 for HIV1 SF33
# Type: toxicity, cell-based
# study.conditions: read-out: Ratio CC50/EC50
Here the recorded selectivity ratio is given for each entry.
The reply should be a number, written without any unit.

Worked set:
{"smiles.string": "O=c1[nH]c(=O)n(COCc2ccccc2)c(Cc2cc(F)cc(F)c2)c1I", "number": 20200}
{"smiles.string": "CCOCn1c(Cc2cc(C)cc(C)c2)c(I)c(=O)[nH]c1=O", "number": 23700}
{"smiles.string": "O=c1[nH]c(=O)n(COCc2ccccc2)c(Cc2ccccc2)c1I", "number": 1660}
{"smiles.string": "CCOCn1c(Cc2ccccc2)c(Br)c(=O)[nH]c1=O", "number": 75}
{"smiles.string": "Cc1cc(C)cc(Cc2c(N(C)C)c(=O)[nH]c(=O)n2COCc2ccccc2)c1", "number": 5200}

Prompt: # query: selectivity ratio of entry Cc1cc(C)cc(Cc2c(I)c(=O)[nH]c(=O)n2COCc2ccccc2)c1
Completion: 38200

* * *

# experiment.description: Selectivity index, ratio of CC50 for human MT4 cells to EC50 for NNRTI-resistant HIV1 A17 expressing reverse transcriptase K103N and Y181C mutant
# Assay type: toxicity, cell-based
# study.conditions: read-out: Ratio CC50/EC50
# selectivity ratio values compiled below
The answer should be a number; do not append a unit.

Some solved cases for reference:
{"smiles.string": "CCOCn1c(Cc2cc(C)cc(C)c2)c(I)c(=O)[nH]c1=O", "selectivity ratio": 222}
{"smiles.string": "Cc1cc(C)cc(Cc2c(Br)c(=O)[nH]c(=O)n2COCc2ccccc2)c1", "selectivity ratio": 253}
{"smiles.string": "Cc1cc(C)cc(Cc2c(N(C)C)c(=O)[nH]c(=O)n2COCc2ccccc2)c1", "selectivity ratio": 25}
{"smiles.string": "O=c1[nH]c(=O)n(COCc2ccccc2)c(Cc2cc(F)cc(F)c2)c1I", "selectivity ratio": 48}

Continue with the next molecule.
Prompt: Fill in: selectivity ratio of Cc1cc(C)cc(Cc2c(I)c(=O)[nH]c(=O)n2COCc2ccccc2)c1 is ___
Completion: 1080

* * *

# System: MT4
# experiment.description: Cytotoxicity against human MT4 cells after 3 days by XTT assay
# Format: cell-based
# study.conditions: mt4, 72 h
# note: boundary value 100 µM maps to label 0; CC50 below it maps to label 1

{"compound": "CCOCn1c(Cc2cc(F)cc(F)c2)c(I)c(=O)[nH]c1=O", "group.label": "label 0"}
{"compound": "O=c1[nH]c(=O)n(COCc2ccccc2)c(Cc2ccccc2)c1Br", "group.label": "label 1"}
{"compound": "Cc1ccnc2c1NC(=O)c1cccnc1N2C1CC1 [NEVIRAPINE]", "group.label": "label 0"}
{"compound": "O=c1[nH]c(=O)n(COCc2ccccc2)c(Cc2ccccc2)c1I", "group.label": "label 1"}
{"compound": "CCOCn1c(Cc2cc(C)cc(C)c2)c(I)c(=O)[nH]c1=O", "group.label": "label 0"}
{"compound": "CCOCn1c(Cc2ccccc2)c(N(C)C)c(=O)[nH]c1=O", "group.label": "label 0"}

Would you kindly look at the next entry?
Prompt: Please determine if Cc1cc(C)cc(Cc2c(N(C)C)c(=O)[nH]c(=O)n2COCc2ccccc2)c1 is below 100 µM in terms of CC50.
Completion: label 1

* * *

# experiment.description: Selectivity index, ratio of CC50 for human MT4 cells to EC50 for HIV1 SF33
# Format: toxicity, cell-based
# study.conditions: read-out: Ratio CC50/EC50
observed.property: selectivity ratio
Just the number, please, no unit after it.

Worked cases, selectivity ratio given:
{"smiles.string": "CN(C)c1c(Cc2ccccc2)n(COCc2ccccc2)c(=O)[nH]c1=O", "selectivity ratio": 264}
{"smiles.string": "CCOCn1c(Cc2ccccc2)c(N(C)C)c(=O)[nH]c1=O", "selectivity ratio": 270}
{"smiles.string": "CC(C)c1c(Cc2ccccc2)n(COCc2ccccc2)c(=O)[nH]c1=O", "selectivity ratio": 3840}
{"smiles.string": "CCOCn1c(Cc2cc(F)cc(F)c2)c(I)c(=O)[nH]c1=O", "selectivity ratio": 559}
{"smiles.string": "O=c1[nH]c(=O)n(COCc2ccccc2)c(Cc2ccccc2)c1Br", "selectivity ratio": 39}

Proceed to the following item.
Prompt: Please report the recorded selectivity ratio for Cc1cc(C)cc(Cc2c(Br)c(=O)[nH]c(=O)n2COCc2ccccc2)c1 .
Completion: 16900

* * *

# System: MT4
# experiment.description: Cytotoxicity against human MT4 cells after 3 days by XTT assay
# Format: cell-based
# study.conditions: mt4, 72 h
observed.property: CC50 (µM)
Express your answer in µM, writing the number without its unit.

Consider the following illustrative entries.
{"smiles.string": "Cc1cc(C)cc(Cc2c(Br)c(=O)[nH]c(=O)n2COCc2ccccc2)c1", "target.or.system": "MT4", "CC50 [µM]": 152}
{"smiles.string": "CN(C)c1c(Cc2ccccc2)n(COCc2ccccc2)c(=O)[nH]c1=O", "target.or.system": "MT4", "CC50 [µM]": 91.8}
{"smiles.string": "CC(C)c1c(Cc2ccccc2)n(COCc2ccccc2)c(=O)[nH]c1=O", "target.or.system": "MT4", "CC50 [µM]": 84.6}
{"smiles.string": "O=c1[nH]c(=O)n(COCc2ccccc2)c(Cc2cc(F)cc(F)c2)c1I", "target.or.system": "MT4", "CC50 [µM]": 121}

Prompt: Any idea what CC50 was measured for CCOCn1c(Cc2ccccc2)c(Br)c(=O)[nH]c1=O ?
Completion: 155
